test: Plasma lipid-lowering activity at a dosage of 0.005% in the diet in KKA(y) mice.; assay type: functional, Mus musculus
Rule: Activity below 30 gives 1 (yes), anything at or above gives 0 (no).

Problem: # strict comparison: is reported Activity < 30? input = Cc1oc(-c2ccccc2)nc1COc1ccc(CCCCCC2SC(=O)NC2=O)cc1 (stereo unspecified)
Solution: 1 (yes)

Problem: API: query returns whether the molecule falls strictly under 30 in Activity. Query: Cc1oc(-c2ccccc2)nc1CCOc1ccc(CCCCC2OC(=O)NC2=O)cc1 (stereo unspecified)
Solution: 1 (yes)

Problem: In plain terms, does COc1cc(CCCC2OC(=O)NC2=O)ccc1OCc1nc(-c2ccccc2)oc1C (stereo unspecified) come in under 30 for Activity?
Solution: 0 (no)

Problem: # strict comparison: is reported Activity < 30? input = Cc1oc(-c2ccc3ccccc3c2)nc1COc1ccc(CCCC2OC(=O)NC2=O)cc1 (stereo unspecified)
Solution: 0 (no)

Problem: Dear colleague, could you confirm whether Activity of Cc1oc(-c2ccccc2)nc1COc1ccc(CCCC2OC(=O)NC2=O)cn1 (stereo unspecified) falls below 30? Thanks.
Solution: 0 (no)

Problem: Consider the molecule Cc1oc(-c2ccccc2)nc1COc1ccc(CCC2SC(=O)NC2=O)cc1 (stereo unspecified) . Is its Activity strictly less than 30?
Solution: 1 (yes)

Problem: Does the reported Activity of Cc1oc(-c2ccccc2)nc1COc1ccc(CCCCC2SC(=O)NC2=O)cc1 (stereo unspecified) stay below 30?
Solution: 1 (yes)

Problem: # check: Activity < 30 for Cc1oc(-c2ccccc2)nc1CCCOc1ccc(CC2OC(=O)NC2=O)cc1 (stereo unspecified)
Solution: 1 (yes)

Problem: is_below(Activity, 30) for Cc1oc(-c2ccccc2)nc1CCOc1ccc(CCC2SC(=O)NC2=O)cc1 (stereo unspecified) ?
Solution: 0 (no)

Problem: A record lists Cc1oc(-c2ccccc2)nc1COc1ccc(/C=C/C=C2/OC(=O)NC2=O)cc1 . Is its Activity below 30?
Solution: 1 (yes)

Problem: Is 30 strictly greater than the molecule's reported Activity? molecule: Cc1oc(-c2ccccc2)nc1CCOc1ccc(CCC2OC(=O)NC2=O)cc1 (stereo unspecified)
Solution: 0 (no)
